# Assay system: human CYP11B1 (Homo sapiens, UniProt P15538)
# Sequence (P15538 25-503): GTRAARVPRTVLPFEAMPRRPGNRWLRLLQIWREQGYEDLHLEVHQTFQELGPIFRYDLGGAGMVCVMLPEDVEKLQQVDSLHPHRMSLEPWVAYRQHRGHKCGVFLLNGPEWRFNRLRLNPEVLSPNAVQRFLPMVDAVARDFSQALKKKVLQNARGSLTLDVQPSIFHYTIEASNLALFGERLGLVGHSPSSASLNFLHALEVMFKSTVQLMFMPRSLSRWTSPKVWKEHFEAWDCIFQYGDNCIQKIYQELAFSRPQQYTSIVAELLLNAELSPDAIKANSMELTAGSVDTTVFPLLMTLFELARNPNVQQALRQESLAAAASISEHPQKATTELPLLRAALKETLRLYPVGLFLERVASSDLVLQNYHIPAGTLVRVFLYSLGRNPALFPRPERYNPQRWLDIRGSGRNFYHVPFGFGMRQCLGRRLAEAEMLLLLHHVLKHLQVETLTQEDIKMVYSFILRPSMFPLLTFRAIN
# Assay notes: G-402 cellular enzyme assay, human CYP11B1 (cortisol release, HTRF)
# Measurement context: G-402 cells, 1 μM Deoxycortisol
Endpoint label: EC50 (nM)

- Compound: "Cn1ccc2cncc(N3CCc4cc(Cl)ccc4C3=O)c21"
  Endpoint label: "EC50"
  Unit info: "nM"
  Numeric value: 2350
- Compound: "O=C1c2ccc(Cl)cc2CCN1c1cncc(CCO)c1"
  Endpoint label: "EC50"
  Unit info: "nM"
  Numeric value: 571
- Compound: "O=C1c2ccc(Cl)cc2CCN1c1cncc(Cn2ccc3ccc(F)cc32)c1"
  Endpoint label: "EC50"
  Unit info: "nM"
  Numeric value: 271
- Compound: "O=C1c2ccc(Cl)cc2CCN1c1cncc(Cc2ccc(Cl)c(Cl)c2)c1"
  Endpoint label: "EC50"
  Unit info: "nM"
  Numeric value: 364
- Compound: "CC(=O)N[C@@H]1CCCc2c1cncc2N1C(=O)c2ccc(Cl)cc2[C@@H]1C (single isomer, unassigned)"
  Endpoint label: "EC50"
  Unit info: "nM"
  Numeric value: 82

P: Cc1ccnn1Cc1cncc(N2CCc3cc(Cl)ccc3C2=O)c1
Q: CC1Cc2cc(Cl)ccc2C(=O)N1c1cncc(F)c1 (centres unmarked)
Param metric = EC50; output whichever of P , Q has the minimum value. Kindly give the label for the entry you pick.
P
(P: 1580 nM, Q: 16800 nM)

1: CC(=O)N[C@@H]1CCCc2c1cncc2N1C(=O)c2ccc(Cl)cc2[C@H]1C (single isomer, unassigned)
2: O=C1c2ccc(Cl)cc2CCN1c1cncc(Cn2cc3ccccc3n2)c1
Short answer wanted: higher EC50, 1 or 2 ? Output the label that corresponds to your choice.
1
